Just for reference, paper PMC6767220 is where these values come from.

# target-of-assay: soybean lipoxygenase-1 (Glycine max, UniProt P08170)
# Sequence (P08170 whole entry): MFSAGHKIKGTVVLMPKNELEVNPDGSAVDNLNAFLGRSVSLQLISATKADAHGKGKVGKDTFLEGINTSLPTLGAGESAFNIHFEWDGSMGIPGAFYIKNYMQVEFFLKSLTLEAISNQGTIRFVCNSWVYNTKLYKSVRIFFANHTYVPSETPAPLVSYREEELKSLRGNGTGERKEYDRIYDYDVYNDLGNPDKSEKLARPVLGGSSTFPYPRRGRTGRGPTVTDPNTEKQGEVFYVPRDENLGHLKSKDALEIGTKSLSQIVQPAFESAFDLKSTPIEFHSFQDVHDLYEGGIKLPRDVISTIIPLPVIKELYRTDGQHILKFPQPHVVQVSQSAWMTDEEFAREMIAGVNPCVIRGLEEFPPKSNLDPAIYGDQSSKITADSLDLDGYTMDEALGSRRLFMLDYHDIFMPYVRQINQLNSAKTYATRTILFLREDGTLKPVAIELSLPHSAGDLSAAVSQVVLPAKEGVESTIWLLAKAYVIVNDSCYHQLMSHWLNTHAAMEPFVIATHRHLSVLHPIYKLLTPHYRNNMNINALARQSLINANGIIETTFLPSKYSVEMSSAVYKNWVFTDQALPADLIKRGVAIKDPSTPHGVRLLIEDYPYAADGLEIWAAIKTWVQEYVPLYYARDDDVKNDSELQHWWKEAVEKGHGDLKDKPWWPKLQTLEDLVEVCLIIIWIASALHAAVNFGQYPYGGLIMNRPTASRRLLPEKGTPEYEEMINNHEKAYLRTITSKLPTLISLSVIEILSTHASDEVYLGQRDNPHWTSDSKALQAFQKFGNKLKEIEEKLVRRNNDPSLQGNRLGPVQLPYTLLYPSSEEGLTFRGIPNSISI
# assay-overview: Inhibition of soybean lipoxygenase
# Assay type: biochemical
# Description: The reaction mixture contained the test compounds dissolved in ethanol and soybean lipoxygenase (250 U/mL) in Tris buffer (pH 9). The reaction was initiated by the addition of sodium linoleate (0.1 mM) and monitored for 7 min at 28 °C, by recording the absorbance of a conjugated diene structure at 234 nm. For the estimation of the type of inhibition, the above experiments were repeated, using sodium linoleate at 1 mM, which is higher than the saturating substrate concentration.
Kindly state IC50 for each of the entries shown.
Numbers only, in µM.

compound: O=C(Cc1c[nH]c2ccccc12)OC1N=C(c2ccccc2Cl)c2cc(Cl)ccc2NC1=O (centres unmarked) [Compound 9]
IC50, µM: 255

The recorded IC50 with soybean lipoxygenase-1 (Glycine max, UniProt P08170) for O=C(CCCCC1CCSS1)OC1N=C(c2ccccc2Cl)c2cc(Cl)ccc2NC1=O (centres unmarked) [Compound 6] was 60

---

Field: melting point. Provide a value for each of the compounds that follow.

compound: O=C(Cc1c[nH]c2ccccc12)OC1N=C(c2ccccc2Cl)c2cc(Cl)ccc2NC1=O (stereo not drawn) [Compound 9]
recorded-value: 257 to 258 °C
--
compound: CC(C(=O)OC1N=C(c2ccccc2Cl)c2cc(Cl)ccc2NC1=O)c1cccc(C(=O)c2ccccc2)c1 (stereo not drawn) [Compound 3]
recorded-value: 195 to 201 °C
--
compound: Cc1c(Cl)cccc1Nc1ccccc1C(=O)OC1N=C(c2ccccc2Cl)c2cc(Cl)ccc2NC1=O (stereo not drawn) [Compound 5]
recorded-value: 206 to 207 °C

Provide melting point for all items below, preserving their order.
1. COc1ccc2cc(C(C)C(=O)OC3N=C(c4ccccc4Cl)c4cc(Cl)ccc4NC3=O)ccc2c1 (stereo not drawn) [Compound 2]
2. CC(C)Cc1ccc(C(C)C(=O)OC2N=C(c3ccccc3Cl)c3cc(Cl)ccc3NC2=O)cc1 (stereo not drawn) [Compound 1]
3. CC(C)(C)c1cc(C=CC(=O)OC2N=C(c3ccccc3Cl)c3cc(Cl)ccc3NC2=O)cc(C(C)(C)C)c1O (stereo not drawn) [Compound 8]

Result block:
["136 to 139 °C", "105 to 122 °C", "274 °C"]

---

Please respond with reported inhibition in vivo at 150 µmol/kg for every item in the list.
# Test system: carrageenan-induced rat paw oedema
# assay-overview: Carrageenan-induced rat paw oedema
# Format: in vivo
# condition-label: ip, i.p. 0.15 mmol/kg, 3.5 h post administration, vs controls, read-out: % Oedema Reduction
One number for each entry, in %.

Solved entries:
compound: CC(C)Cc1ccc(C(C)C(=O)OC2N=C(c3ccccc3Cl)c3cc(Cl)ccc3NC2=O)cc1 (stereo not shown)
reported-endpoint: inhibition in vivo at 150 µmol/kg
recorded-value: 68
//
compound: CC(C)Cc1ccc(C(C)C(=O)O)cc1 (stereo not shown) [Ibuprofen, reference compound]
reported-endpoint: inhibition in vivo at 150 µmol/kg
recorded-value: 36
//
compound: COc1ccc2cc([C@H](C)C(=O)O)ccc2c1 [Naproxen, reference compound]
reported-endpoint: inhibition in vivo at 150 µmol/kg
recorded-value: 11

Attention now shifts to the item below.
Field inhibition in vivo at 150 µmol/kg (carrageenan-induced rat paw oedema), entry COc1ccc2c(c1)c(CC(=O)O)c(C)n2C(=O)c1ccc(Cl)cc1 [Indomethacin, reference compound] : 42

---

reported-endpoint: melting point

In the examples that follow, each entry is paired with its recorded melting point.
compound: O=C(CCCCC1CCSS1)OC1N=C(c2ccccc2Cl)c2cc(Cl)ccc2NC1=O (stereo not drawn)
melting point: 184 to 189 °C
//
compound: COc1ccc2c(c1)c(CC(=O)OC1N=C(c3ccccc3Cl)c3cc(Cl)ccc3NC1=O)c(C)n2C(=O)c1ccc(Cl)cc1 (stereo not drawn)
melting point: 189 to 191 °C

# context switch: different compound, same melting point
Recorded result, Cc1c(C)c2c(c(C)c1O)CCC(C)(C(=O)OC1N=C(c3ccccc3Cl)c3cc(Cl)ccc3NC1=O)O2 (stereo not drawn) , melting point: 138 to 144 °C
